test: Literature: pharmacokinetics of dyphylline and related derivatives in humans; conditions: human, in vivo, 10 mg/kg, 10 mg/kg aqueous; from Simons et al.; read-out: Total Vd
ASSAY READOUT: Vd (L/kg)
Unit L/kg implied. Number only.

Returns the measured Vd for the input compound. Input: Cn1c(=O)c2c(ncn2CC(O)CO)n(C)c1=O (stereo not shown) [dyphylline, dihydroxypropyl theophylline]
0.93

----------
assay: clinical; format: in vivo; conditions: human, plasma; 1000 mg IV, twelve volunteers; standard deviation 0.08; read-out: average total volume of distribution, IV
ASSAY READOUT: Vd (L/kg)
Value expressed in L/kg; do not type the unit.

What Vd value was documented for this molecule, Cn1c(=O)c2c(ncn2CC(O)CO)n(C)c1=O (stereo not shown) [dyphylline, dihydroxypropyl theophylline] ?
0.78

----------
experiment: Fatal toxicity of theophylline, repeated aminophylline infusion in rabbits (Example 1); type: in vivo, female New Zealand White rabbits; conditions: rabbit, blood, iv, 40 mg/kg, from FIG. 3 data 1 to 2 hours, prior to second infusion; read-out: volume of distribution (Vd), individual rabbits
ASSAY READOUT: Vd

Please look up its Vd: Cn1c(=O)c2[nH]cnc2n(C)c1=O [theophylline]
0.37 L/kg

----------
experiment: in vivo; details: rabbit, iv, 666.7 mg/kg, average apparent volume of distribution of dyphylline administered with theophylline
ASSAY READOUT: Vd (L/kg)
Give just the number in L/kg; leave the unit off.

Can you share its Vd? I mean this compound: Cn1c(=O)c2c(ncn2CC(O)CO)n(C)c1=O (stereo not shown) [dyphylline, dihydroxypropyl theophylline]
0.41

----------
test: Literature: pharmacokinetics of dyphylline and related derivatives in humans; settings: human, in vivo, from Simons et al.; read-out: Vd, range over dosage forms
ASSAY READOUT: Vd

May I ask what Vd has been recorded for Cn1c(=O)c2c(ncn2CC(O)CO)n(C)c1=O (stereo not shown) [dyphylline, dihydroxypropyl theophylline] ?
0.58 to 0.98 L/kg

----------
test: in vivo; settings: rabbit, iv, 40 mg/kg, average total volume of distribution of theophylline given with dyphylline
ASSAY READOUT: Vd

Query: Vd; subject: "Cn1c(=O)c2[nH]cnc2n(C)c1=O"
~0.35 L/kg

----------
Assay: Dyphylline 20 min intravenous infusion in two healthy male subjects: pharmacokinetics, blood pressure, pulse (Example 2)
Format: in vivo, human
Conditions: human, in vivo, iv, 1000 mg, Subject 2; 0.693/β
Protocol: 1000 mg of the drug dyphylline was infused over twenty minutes in two heathy male patients to determine the volume of distribution of the central compartment. A physician evaluated two male volunteer subjects for their drug and disease histories. […] A dose of 1,000 mg of dyphylline (Neothylline®) diluted in normal saline (0.9 percent) was administered at a rate of 50 mg/min via a constant infusion pump for twenty minutes. Blood pressure and electrocardiogram readings were monitored by a physician. […]
ASSAY READOUT: half-life (h)
Answer format: numeric, h implied, no suffix.

Which half-life is listed for Cn1c(=O)c2c(ncn2CC(O)CO)n(C)c1=O (stereo not shown) [dyphylline, dihydroxypropyl theophylline] ?
1.66

----------
assay: Literature: pharmacokinetics of dyphylline and related derivatives in humans; settings: human, in vivo, po, analysis of Gisclon oral data, bioavailability 84 percent; read-out: central compartment volume
ASSAY READOUT: Vd/F

Requested read-out: Vd/F. Entry: Cn1c(=O)c2c(ncn2CC(O)CO)n(C)c1=O (stereo not shown) [dyphylline, dihydroxypropyl theophylline]
~44 L
